Substrate: C[C@H](CCC(=O)O)[C@H]1CC[C@H]2[C@@H]3C(=O)C[C@@H]4CC(=O)CC[C@]4(C)[C@H]3CC(=O)[C@]12C
Protocol details: purified protein, by the assay type
Condition details: other: Table 14, substrate DHCA; tag N; apparent values; pH 8.0
Measurement type: Km (µM)
Give the quantity in µM, number only.

Protein: Comamonas testosteroni 3α-HSDH mutant [P185A], N-terminal hexahistidine tag (Comamonas testosteroni; P185A) (protein) MSIIVISGCATGIGAATRKVLEAAGHQIVGIDIRDAEVIADLSTAEGRKQAIADVLAKCSKGMDGLVLCAGLGPQTKVLGNVVSVNYFGATELMDAFLPALKKGHQPAAVVISSVASAHLAFDKNPLALALEAGEEAKARAIVEHAGEQGGNLAYAGSKNALTVAVRKRAAAWGEAGVRLNTIAAGATETPLLQAGLQDPRYGESIAKFVPPMGRRAEPSEMASVIAFLMSPAASYVHGAQIVIDGGIDAVMRPTQF
Km [µM]: 71.0
//
Protein: Comamonas testosteroni 3α-HSDH dual mutant [P185A/T188A], N-terminal hexahistidine tag (Comamonas testosteroni; P185A/T188A) (protein) MSIIVISGCATGIGAATRKVLEAAGHQIVGIDIRDAEVIADLSTAEGRKQAIADVLAKCSKGMDGLVLCAGLGPQTKVLGNVVSVNYFGATELMDAFLPALKKGHQPAAVVISSVASAHLAFDKNPLALALEAGEEAKARAIVEHAGEQGGNLAYAGSKNALTVAVRKRAAAWGEAGVRLNTIAAGAAETPLLQAGLQDPRYGESIAKFVPPMGRRAEPSEMASVIAFLMSPAASYVHGAQIVIDGGIDAVMRPTQF
Km [µM]: 66.9

Task: Please report the recorded Km for Comamonas testosteroni 3α-HSDH mutant [T188S], N-terminal hexahistidine tag (Comamonas testosteroni; T188S) (protein) MSIIVISGCATGIGAATRKVLEAAGHQIVGIDIRDAEVIADLSTAEGRKQAIADVLAKCSKGMDGLVLCAGLGPQTKVLGNVVSVNYFGATELMDAFLPALKKGHQPAAVVISSVASAHLAFDKNPLALALEAGEEAKARAIVEHAGEQGGNLAYAGSKNALTVAVRKRAAAWGEAGVRLNTIAPGASETPLLQAGLQDPRYGESIAKFVPPMGRRAEPSEMASVIAFLMSPAASYVHGAQIVIDGGIDAVMRPTQF .
Output: 312.6
